Attribution: patent US8901309B2

Readings of Aβ42 production inhibitory activity (% inhibition) for the listed molecules
- System: Aβ42 in hippocampi of C57BL/6J mice
- assay: Hippocampal soluble Aβ42 ELISA in mice after oral administration
- Assay type: in vivo, mouse
- particulars: 10 mg/kg orally, hippocampi isolated 3 hours after administration, soluble Aβ42 by ELISA, 10 mg/kg
Form entry: value (% inhibition) — number only.

Some molecules with known Aβ42 production inhibitory activity (% inhibition) results, for comparison:
[
  {
    "molecule": "COc1nc(-c2nnc3n2CCCC3(Oc2ccc(F)c(C(F)(F)F)c2)C(C)(C)O)ccc1-n1cnc(C)c1 (stereo not drawn)",
    "tested_on": "Aβ42 in hippocampi of C57BL/6J mice",
    "measured_number": 48
  },
  {
    "molecule": "COc1cc(-c2nnc3n2CCCC3(Oc2cccc(C(F)(F)F)c2)C(C)(C)O)ccc1-c1cnc(C)o1 (stereo not drawn)",
    "tested_on": "Aβ42 in hippocampi of C57BL/6J mice",
    "measured_number": 59
  },
  {
    "molecule": "COc1cc(-c2nnc3n2CCCC3(Oc2cc(F)cc(F)c2)C(C)(C)O)ccc1-c1cnc(C)o1 (stereo not drawn)",
    "tested_on": "Aβ42 in hippocampi of C57BL/6J mice",
    "measured_number": 56
  },
  {
    "molecule": "COc1cc(-c2nnc3n2CCCC3(Oc2ccc(C(F)(F)F)cc2)C(C)(C)O)ccc1-c1cnc(C)o1 (stereo not drawn) [Example 104]",
    "tested_on": "Aβ42 in hippocampi of C57BL/6J mice",
    "measured_number": 36
  }
]

response.value for COc1cc(-c2nnc3n2CCCC3(Oc2ccc(C(F)(F)F)cc2)C(C)(C)O)ccc1-c1cnc(C)o1 (stereo not drawn) [Example 132] (field: Aβ42 production inhibitory activity (% inhibition)) = 58

response.value for COc1cc(-c2nnc3n2CCCC3(Oc2ccc(F)c(F)c2)C(C)(C)O)ccc1-c1cnc(C)o1 (stereo not drawn) (field: Aβ42 production inhibitory activity (% inhibition)) = 32
